The values you see were collected from patent US20190153059A1.

Target: CLR/RAMP2 receptor (UniProt Q16602 23-461; O60895 43-175, limits assumed)
Sequence (Q16602 23-461 limits assumed, chain 1 of 2): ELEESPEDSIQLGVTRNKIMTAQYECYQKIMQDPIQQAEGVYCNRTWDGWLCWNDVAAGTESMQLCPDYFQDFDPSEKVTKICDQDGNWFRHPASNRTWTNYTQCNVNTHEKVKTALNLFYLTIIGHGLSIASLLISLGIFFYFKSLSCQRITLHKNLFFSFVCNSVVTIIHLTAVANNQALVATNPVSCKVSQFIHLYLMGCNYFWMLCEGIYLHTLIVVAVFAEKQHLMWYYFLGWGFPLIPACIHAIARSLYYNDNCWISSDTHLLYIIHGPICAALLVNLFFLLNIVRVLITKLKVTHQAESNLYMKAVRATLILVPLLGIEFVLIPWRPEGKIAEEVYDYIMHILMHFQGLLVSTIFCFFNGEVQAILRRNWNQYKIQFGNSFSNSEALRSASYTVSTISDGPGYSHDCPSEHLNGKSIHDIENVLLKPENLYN
Sequence (O60895 43-175 limits assumed, chain 2 of 2): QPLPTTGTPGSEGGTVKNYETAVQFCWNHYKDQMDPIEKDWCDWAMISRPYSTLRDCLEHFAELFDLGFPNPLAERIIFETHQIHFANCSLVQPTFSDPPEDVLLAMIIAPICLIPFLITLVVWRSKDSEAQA
Experiment: cell-based or functional assay
Square brackets hold non-standard residues; d marks the D form. Ends that are not written are not given here. * marks the point of attachment. Palmitoyl = CCCCCCCCCCCCCCCC(=O)*; AEEA = NCCOCCOCC(=O)O
Decision: CLR/RAMP2 EC50 compared against 0.4 nM; not below it gives 1.0, below it gives 0.0.

Consider the following illustrative entries.
binder	label_value
[AEEA]K(Palmitoyl)GCRFGTCTVQKLAHQIYQFTDKDKQDSAPVDPSSPHSY-NH2 (ends and bridges not checked) [SEQ ID NO: 51]	0.0
Palmitoyl-KGCRFGTCTVQKLAHQIYQFTDKDVAPRSKISPQGY-NH2 (ends and bridges not checked) [SEQ ID NO: 103]	1.0
Ac-TK(Palmitoyl)KTLRTGCRFGTCTVQKLAHQIYQFTDKDKDNVAPVDPSSPHSY-NH2 (ends and bridges not checked) [SEQ ID NO: 41]	1.0
miniPEG-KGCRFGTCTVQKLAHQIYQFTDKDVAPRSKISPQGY-NH2 (ends and bridges not checked; also: K(PAL), position not given here) [SEQ ID NO: 101]	0.0
Palmitoyl-KGCRFGTCTVQKLAHQIYQFTPAGRQDSAPVDPSSPHSY-NH2 (cysteine pairing not given here) [SEQ ID NO: 31]	1.0

Inquiry: Is the recorded value of CLR/RAMP2 EC50 equal to or greater than 0.4 nM for this binder? Ac-VGCRFGTCTVQKLAHQIYQFTDKDKDNSAPVDPSSPHSY-NH2 (ends and bridges not checked) [SEQ ID NO: 56]
Reply text: 1.0

Inquiry: Is the recorded value of CLR/RAMP2 EC50 equal to or greater than 0.4 nM for this binder? Ac-KGCRFGTCTVQKLAHQIYQFTDKDSAPVDPSSPHSY-NH2 (cysteine pairing not given here) [SEQ ID NO: 93]
Reply text: 1.0

Inquiry: Is the recorded value of CLR/RAMP2 EC50 equal to or greater than 0.4 nM for this binder? Palmitoyl-KGCRFGTCTVQKLAHQIYQFTDKDSAPVDPSSPHSY-NH2 (cysteine pairing not given here) [SEQ ID NO: 92]
Reply text: 0.0

Inquiry: Is the recorded value of CLR/RAMP2 EC50 equal to or greater than 0.4 nM for this binder? miniPEG-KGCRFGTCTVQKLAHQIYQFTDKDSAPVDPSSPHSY-NH2 (cysteine pairing not given here; also: K(PAL) present, lysine not given here) [SEQ ID NO: 48]
Reply text: 0.0
